These data points were gathered from PubChem BioAssay AID652048.

target: D(3) dopamine receptor (Homo sapiens) (UniProt P35462); test: qHTS of D3 Dopamine Receptor Agonist: qHTS; details: D3R DiscoveRx beta-arrestin cells, luminescence, 90 min; stronger effect = higher value; note: 0% is about no effect
Sequence (P35462 whole entry, looked up): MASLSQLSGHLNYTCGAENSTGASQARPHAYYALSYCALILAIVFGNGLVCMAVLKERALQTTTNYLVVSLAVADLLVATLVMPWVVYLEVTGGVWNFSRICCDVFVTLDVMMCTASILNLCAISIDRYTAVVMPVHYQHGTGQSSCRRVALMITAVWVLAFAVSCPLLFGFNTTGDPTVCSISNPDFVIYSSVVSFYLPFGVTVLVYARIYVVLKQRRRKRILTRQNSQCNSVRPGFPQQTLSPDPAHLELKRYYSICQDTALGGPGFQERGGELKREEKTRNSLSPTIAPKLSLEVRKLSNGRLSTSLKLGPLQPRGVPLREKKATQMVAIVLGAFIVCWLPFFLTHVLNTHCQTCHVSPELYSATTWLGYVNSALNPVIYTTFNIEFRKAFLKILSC
Screen size: about 410,000 compounds; about 2,400 (0.59%) were called active. This is one part of a sample in which actives are shown more often than they occur.
property_measured: max activation (%)
API: value field is a number in %; no unit string.

Q: I would be grateful if you could share the reported max activation for O=C(NCCN1C(=O)S/C(=C\c2cccnc2)C1=O)c1ccc(S(=O)(=O)N2CCCC2)cc1 .
A: 31.1

Q: I would be grateful if you could share the reported max activation for COc1ccc(CCNc2ncnc3c2cnn3-c2ccc(C)cc2)cc1 .
A: 11.8

Q: I would be grateful if you could share the reported max activation for O=C(CSc1nc(O)c(Cc2ccccc2)c(=O)[nH]1)Nc1nc2c(s1)CCCC2 .
A: 3.59

Q: I would be grateful if you could share the reported max activation for Cc1noc(C)c1C(=O)Nc1ccccn1 .
A: 31.1

Q: I would be grateful if you could share the reported max activation for COc1ccc(N2CC(C(=O)NCCN3C(=O)S/C(=C\c4cccnc4)C3=O)CC2=O)c(OC)c1 (stereo not given) .
A: 2.93

Further cases:
Q: I would be grateful if you could share the reported max activation for CCc1cccc(-n2nnc(-c3nsc(NC(=O)c4ccc(C)cc4)n3)c2C)c1 .
A: -11.9

Q: I would be grateful if you could share the reported max activation for Cc1noc(C)c1C(=O)NCCc1ccc(S(N)(=O)=O)cc1 .
A: 4.23

Q: I would be grateful if you could share the reported max activation for CC1CCN(C(=O)COC(=O)c2cc(=O)[nH]c3ccccc23)CC1 .
A: -2.85
